biological target: Concanavalin A (Con A) (Canavalia ensiformis, UniProt P02866)
Sequence (P02866 164-281 limits assumed): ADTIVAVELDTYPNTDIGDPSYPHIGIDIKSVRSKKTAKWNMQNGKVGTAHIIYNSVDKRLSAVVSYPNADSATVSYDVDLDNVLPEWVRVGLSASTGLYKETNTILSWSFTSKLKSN
Sequence (P02866 30-148 limits assumed): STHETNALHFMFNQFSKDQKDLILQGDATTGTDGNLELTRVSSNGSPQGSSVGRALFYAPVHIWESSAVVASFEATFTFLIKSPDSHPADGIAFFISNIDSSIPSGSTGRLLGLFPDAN
quantity.name: IC50 (µM)

{"columns": ["molecule", "quantity.name", "measurement.units", "reported.value"],
 "data": [
  ["CO[C@H]1O[C@H](CO)[C@@H](O)[C@H](O)[C@@H]1O [Methyl mannose]", "IC50", "µM", 240]
]}
